# Test system: L1210 leukemia ip in BDF1 mice, survival T/C
# assay protocol: NCI In Vivo Anticancer Drug Screen. Data for tumor model L1210 Leukemia (intraperitoneal) in B6D2F1 (BDF1) mice
# setup conditions: endpoint: mean survival time; dose: 200.0 mg/kg/injection; schedule: Q01DX001 (ip); vehicle: Klucel (hydroxypropylcellulose) (HPC); higher = longer survival
Inconclusive results and toxic doses are left out.
This section presents compounds with their documented T/C values.

Examples from the recorded data:
Sample N=C(N)c1cccc(OCCCc2ccccc2)c1 ; T/C observed: 97 % of control

Kindly note the recorded T/C for Cc1cccc([N+](=O)[O-])c1-c1c(C)cccc1[N+](=O)[O-] , which is 96 % of control

Item: CC(CCC(=O)O)([N+](=O)[O-])[N+](=O)[O-] | T/C: 102 % of control

New cases:
# T/C (compound: CCCCCCCCCC(N)=O ) is 100 % of control

Just so you know, measured T/C for Cc1ccc(S(=O)(=O)n2cc[nH]c2=O)cc1 came out at 100 % of control

* * *

# System: L1210 leukemia ip in BDF1 mice, survival T/C
# assay protocol: NCI In Vivo Anticancer Drug Screen. Data for tumor model L1210 Leukemia (intraperitoneal) in B6D2F1 (BDF1) mice
# setup conditions: endpoint: mean survival time; dose: 100.0 mg/kg/injection; schedule: Q04DX003 (ip); vehicle: Klucel (hydroxypropylcellulose) (HPC); higher = longer survival
Inconclusive results and toxic doses are left out.
measure name: T/C

# example entries with known answers
get_value(item= Oc1ccc(C2CCCCC2)c(O)c1 , readout=T/C) returns 98 % of control

// field: T/C; key: [N-]=[N+]=C1c2ccccc2-c2ccccc21 ; value = 104 % of control

Record summary for Clc1ccc(OCOc2ccc(Cl)cc2)cc1 : reported T/C = 106 % of control

// recorded T/C for Cc1ccc(S(=O)(=O)OCC(CO)(COS(=O)(=O)c2ccc(C)cc2)[N+](=O)[O-])cc1 : 97 % of control

According to the records, this compound O=C(NC(CSC(c1ccccc1)c1ccccc1)C(=O)O)OCc1ccccc1 (stereo unspecified) displays T/C of 93 % of control

Next:
# T/C of Cc1cc2c(C)c3ccccc3c(C)c2c2ccccc12 = 95 % of control

// T/C value for CCc1ccc(NC(=O)C(c2ccccc2)c2ccccc2)cc1 : 100 % of control

Short answer for O=P1(CCc2ccc(Br)cc2)CC(Br)C(Br)C1 (stereo unspecified) : T/C was 104 % of control

Quick note, T/C for Cc1c(C)c2c(C(N)=O)c3ccccc3nc2c2ccccc12 landed at 100 % of control

* * *

Measured T/C by item
# System: L1210 leukemia ip in BDF1 mice, survival T/C
# assay protocol: NCI In Vivo Anticancer Drug Screen. Data for tumor model L1210 Leukemia (intraperitoneal) in B6D2F1 (BDF1) mice
# setup conditions: endpoint: mean survival time; dose: 100.0 mg/kg/injection; schedule: Q04DX002 (ip); vehicle: Klucel (hydroxypropylcellulose) (HPC); higher = longer survival
Toxic doses and inconclusive results are not listed.

So for CCCCN(CCCC)CCNCC(Cc1ccccc1)c1ccccc1 (stereo unspecified) , the logged T/C turned out to be 93 % of control

Form field T/C, entry NNC(=O)CNc1ccc(F)cc1 : 105 % of control

The compound listed as Cc1cc(OC(=O)Nc2cc(Cl)ccc2C)c(C(C)C)cc1Cl has a reported T/C of 96 % of control

Consider Cc1ccc([N+](=O)[O-])cc1NC(=O)NC(=O)c1ccccc1 . Its measured T/C is 92 % of control

Sample CCCCCC(C[N+](C)(C)C)C(=O)/C=C/c1ccc(Cl)c(Cl)c1 (stereo unspecified) ; T/C observed: 95 % of control

So, CCCCCCCCCCCCCCCCN1CCN(CCCCCCCCCCCCCCCC)CC1 ? Its T/C was 108 % of control

Summary for this compound, O=Cc1c(Cl)[nH]c2ccccc12 : T/C is 93 % of control

Recorded T/C (compound COc1ccc([N+](=O)[O-])cc1NC(=O)Nc1cccc(C(F)(F)F)c1 ): 96 % of control

Memo: COc1ccc(C(=O)CC(Sc2ccccc2N)c2ccc(OC)cc2)cc1 (stereo unspecified) , reported T/C: 98 % of control

// field: T/C; key: OCCC#CCCCOC1CCCCO1 (stereo unspecified) ; value = 105 % of control

CC1(O)C2CC3CC(C2)CC1C3 (stereo unspecified) has a reported T/C of 113 % of control

Short answer for O=C(COc1cc(Cl)c(Cl)cc1Cl)Nc1ccc(Cl)cc1 : T/C was 103 % of control

// sample COc1ccc(C(O)c2cc3ccccc3n2S(=O)(=O)c2ccccc2)cc1 (stereo unspecified) , its T/C was 95 % of control

The compound listed as Nc1ccc([N+](=O)[O-])cc1Cl shows T/C equal to 122 % of control
